Give pIC50 for every item shown.
target: UniProtKB P00533; assay: Inhibition of human recombinant EGFR expressed in insect cells by time-resolved fluorimetry; type: cell-based
// scale note: pIC50 = -log10(conc_M); give the bare number

# input Requested field: pIC50. Item: O=C(Nc1ccc2ncnc(Nc3cccc(Br)c3)c2c1)[C@@H]1O[C@H]1CN1CCCCC1
# output 8.91

# input Requested field: pIC50. Item: O=C(CNC(=O)Oc1ccccc1)Nc1ccc2ncnc(Nc3cccc(Br)c3)c2c1
# output 9.43

# input Requested field: pIC50. Item: O=C(COc1ccc(F)cc1)Nc1ccc2ncnc(Nc3cccc(Br)c3)c2c1
# output 8.07

# input Requested field: pIC50. Item: CC(C)c1nsc(C(=O)Nc2ccc3ncnc(Nc4cccc(Br)c4)c3c2)n1
# output 6.89

# input Requested field: pIC50. Item: O=C(Cn1sc2ccccc2c1=O)Nc1ccc2ncnc(Nc3cccc(Br)c3)c2c1
# output 9.07

---

molecular target: Epidermal growth factor receptor (Homo sapiens, UniProt P00533); settings: A-431, at 1 µM
Sequence (P00533 whole entry): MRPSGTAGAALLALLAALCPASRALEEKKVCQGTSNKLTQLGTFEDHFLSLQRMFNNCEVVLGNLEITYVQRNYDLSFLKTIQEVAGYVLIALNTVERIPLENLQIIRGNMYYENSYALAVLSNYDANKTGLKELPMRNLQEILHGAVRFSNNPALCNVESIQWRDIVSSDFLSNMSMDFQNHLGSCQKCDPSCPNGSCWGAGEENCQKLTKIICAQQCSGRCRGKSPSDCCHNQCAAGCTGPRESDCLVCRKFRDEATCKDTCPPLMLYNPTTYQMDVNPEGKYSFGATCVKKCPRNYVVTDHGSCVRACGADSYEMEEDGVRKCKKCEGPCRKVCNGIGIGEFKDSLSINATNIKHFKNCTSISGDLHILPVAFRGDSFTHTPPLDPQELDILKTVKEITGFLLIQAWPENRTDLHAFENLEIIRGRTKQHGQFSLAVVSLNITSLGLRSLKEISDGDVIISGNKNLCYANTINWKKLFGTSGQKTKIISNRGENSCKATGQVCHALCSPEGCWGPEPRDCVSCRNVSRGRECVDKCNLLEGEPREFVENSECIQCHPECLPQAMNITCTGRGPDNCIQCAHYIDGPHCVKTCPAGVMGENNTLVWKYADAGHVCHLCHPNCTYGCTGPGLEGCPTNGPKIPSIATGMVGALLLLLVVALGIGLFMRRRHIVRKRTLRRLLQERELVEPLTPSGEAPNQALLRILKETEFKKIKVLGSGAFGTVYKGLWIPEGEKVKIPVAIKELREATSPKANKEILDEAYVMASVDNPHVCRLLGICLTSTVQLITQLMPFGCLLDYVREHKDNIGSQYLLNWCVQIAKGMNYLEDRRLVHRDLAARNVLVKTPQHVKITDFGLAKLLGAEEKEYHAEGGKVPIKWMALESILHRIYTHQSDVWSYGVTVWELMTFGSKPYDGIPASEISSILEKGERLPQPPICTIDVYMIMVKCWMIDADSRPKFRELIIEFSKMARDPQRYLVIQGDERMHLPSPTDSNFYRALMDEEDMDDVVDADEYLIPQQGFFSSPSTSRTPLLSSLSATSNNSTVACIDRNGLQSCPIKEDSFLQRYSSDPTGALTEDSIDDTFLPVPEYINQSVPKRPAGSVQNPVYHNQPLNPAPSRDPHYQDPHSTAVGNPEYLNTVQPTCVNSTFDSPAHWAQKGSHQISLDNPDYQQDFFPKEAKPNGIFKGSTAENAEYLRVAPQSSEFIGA
Description: Inhibition of EGFR autophosphorylation in human A431 cells at 1 uM after 1 hr by Western blot
Label scheme for inhibition: lower than 70% is Not met, 70% and above is Met.

# input Confirm if inhibition reported for the compound O=C(COc1ccc(F)cc1)Nc1ccc2ncnc(Nc3cccc(Br)c3)c2c1 is 70% or above.
# output Met

# input Confirm if inhibition reported for the compound CC(C)c1nsc(C(=O)Nc2ccc3ncnc(Nc4cccc(Br)c4)c3c2)n1 is 70% or above.
# output Met

# input Confirm if inhibition reported for the compound CCOC(=O)[C@@H]1O[C@H]1C(=O)Nc1ccc2ccccc2c1 is 70% or above.
# output Not met

# input Confirm if inhibition reported for the compound O=C(CNC(=O)Oc1ccccc1)Nc1ccc2ncnc(Nc3cccc(Br)c3)c2c1 is 70% or above.
# output Met

# input Confirm if inhibition reported for the compound O=C(Nc1ccc2ncnc(Nc3cccc(Br)c3)c2c1)[C@@H]1O[C@H]1CN1CCCCC1 is 70% or above.
# output Met

# input Confirm if inhibition reported for the compound Nc1ccc2ncnc(Nc3cccc(Br)c3)c2c1 is 70% or above.
# output Met

# input Confirm if inhibition reported for the compound O=C(COc1ccccc1)Nc1ccc2ccccc2c1 is 70% or above.
# output Not met

---

Give IC50 for every item shown.
molecular target: Epidermal growth factor receptor (Homo sapiens); assay: Inhibition of EGFR autophosphorylation in human A431 cells after 8 hrs by Western blot; format: cell-based, A-431
Field format: number, assumed nM, no unit text.

# input Requested field: IC50. Item: O=C(Nc1ccc2ncnc(Nc3cccc(Br)c3)c2c1)[C@@H]1O[C@H]1CN1CCCCC1
# output 44

# input Requested field: IC50. Item: O=C(COc1ccc(F)cc1)Nc1ccc2ncnc(Nc3cccc(Br)c3)c2c1
# output 291

---

Give inhibition for every item shown.
target: Epidermal growth factor receptor (Homo sapiens, UniProt P00533); settings: A-431, at 1 µM
Description: Inhibition of EGFR autophosphorylation in human A431 cells at 1 uM after 8 hrs by Western blot
Field format: number, assumed %, no unit text.

# input Requested field: inhibition. Item: O=C(Cn1sc2ccccc2c1=O)Nc1ccc2ncnc(Nc3cccc(Br)c3)c2c1
# output 30.7

# input Requested field: inhibition. Item: CCOC(=O)[C@@H]1O[C@H]1C(=O)Nc1ccc2ccccc2c1
# output 0

# input Requested field: inhibition. Item: Nc1ccc2ncnc(Nc3cccc(Br)c3)c2c1
# output 0
